Every entry's value here was drawn from the supplement of paper PMC6555819.

Entries and their measured PBM binding z-score follow.
System: PPARg DBDmut IVT, anti-PPARg (DBD mutation: PPARg1 K132A/R137A, NR concentration 270 nM)
Experiment: PBM binding z-score (relative to random genomic background probes); higher = stronger binding; sequences stand for … in GC…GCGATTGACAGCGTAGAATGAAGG
API note: the answer field is a bare number with no unit suffix.

Consider the following illustrative entries.
CCTAGCACGCCAGGGTCACTCAAGCATTTCGCTT -1.26
ACTATTCGTTGAGACGAGGGCAACCGATAGGTTG 0.89
ACAGACAGGTGAGTGAAGGTAACTCCGCTGGACG -0.279

# input Please report PBM binding z-score for the following sequence: AGAATGAGGTTGTTAAGATCAGGGAATTGCGGTC
# output -0.016

# input Determine its reported PBM binding z-score: CCGAGTAGTTTATGGGGCATTCAGGCAACGGTGA
# output -0.259

# input Recall and state the measured PBM binding z-score for GCACATAGGTAATACAAGGTGAAAGTCCGATTGT .
# output 0.527

# input # return recorded PBM binding z-score for entry ATCTCTAGGTAAGTCTCAGTTCAGTGAAGAACGC
# output 1.5

# input Provide PBM binding z-score value for the following sequence: CGAACTAGGTCAGAACAGGACAGTGGAGGATGAT
# output 0.317

# input Determine its reported PBM binding z-score: CGTCCAAGGTCAACGGTCAGTGAAGAGATGACGG
# output 0.233

# input Name the recorded PBM binding z-score of the item AGAATGAGGTTATAAGTAGATCAGGGAAGAAAGT in your answer.
# output 0.782

# input Answer with the recorded PBM binding z-score for the sequence listed here: CTAACTAGGTCAAAGGTCAAAGTCGAGCCAACCA
# output 1.6

# input Indicate its recorded PBM binding z-score; the sequence in question is TCTAGTTGGTCAAAGGTCACTCACTCGAAATGCG
# output 1.66

---

Test system: LXRa:RXRa (NR concentration 270 nM, RXRa partner concentration 90 nM)
Assay: PBM binding z-score (relative to random genomic background probes); higher = stronger binding; sequences stand for … in GC…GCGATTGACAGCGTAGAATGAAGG
measuredEndpoint: PBM binding z-score
Response field accepts a number only; no unit should be typed.

Example sequences with recorded PBM binding z-score:
TCTTGTAGATCATCAGGTTAAGAAAGCTGGCCAA 0.703
GATACAGGGTCAAGGCCAGAGTTCGCGTATTGAT 4.34

Next sequence, PBM binding z-score to be filled in.
# input Consider the sequence ATCTCTAGTTAACAAGTTCAGTGAAAGAGAGGAC and give its recorded PBM binding z-score.
# output 1.12

---

System: VDR homodimer (NR concentration 270 nM)
Test: PBM binding z-score (relative to random genomic background probes); higher = stronger binding; sequences stand for … in GC…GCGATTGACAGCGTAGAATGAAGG
Collected PBM binding z-score values appear next to each entry.
Answer using only a numeral; do not append any unit.

Some sequences with recorded PBM binding z-score:
TCTAGCAGGGCAGAGGGTCACTCAAGAGGTACGG 0.66
CGTCCAAGGTCAGAGAGGTCAGTTAATGCCGAGT 6.29

Could you now look at the following sequence, please?
# input Note PBM binding z-score for the sequence shown: TCTTGTAGATCAAGCACGTTAAGAAAGCCTGAGT
# output -0.125

---

Test system: PPARg DBDmut IVT, anti-PPARg (DBD mutation: PPARg1 K132A/R137A, NR concentration 270 nM)
Assay: PBM binding z-score (relative to random genomic background probes); higher = stronger binding; sequences stand for … in GC…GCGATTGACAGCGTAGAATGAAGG
measuredEndpoint: PBM binding z-score
Could you keep your reply to the number by itself?

CAAACTAGGTCATGGTCAAAGTCGGTTTGTGCCA 1.82
CGTCCAAGGTCAAAGATCAGTGAAGAGATGACGG -0.108
GCTGCTAGGTCAGGTTGGTCAGATAACGGGTACG -0.502
CGAACTAGGTCAATGACAGTGAATCTCCGCACGC 0.0144

# input State its PBM binding z-score for this sequence: ATACCAAGGTGATCGTGAGGTCGTAGATACTAAC
# output 0.745

# input Report measured PBM binding z-score; entry is GCTCGGAGGATAAGGTCAGAGCTTTGTCCGTAGA
# output -1.51

# input Give recorded PBM binding z-score. CAAACTAGGTCAGCGGAAGGTCAAAGTCCGCATG
# output 1.19

---

Tested on: LXRa:RXRa (NR concentration 270 nM, RXRa partner concentration 90 nM)
Assay: PBM binding z-score (relative to random genomic background probes); higher = stronger binding; sequences stand for … in GC…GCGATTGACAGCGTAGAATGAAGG
A collection of sequences and their measured PBM binding z-score
Hey, just send me the number, nothing else.

Below, 2 sequences whose answers are already recorded.
CAAACTAGGCCAAAGGTCAAAGTCGAGCCAACCA 5.86
AGGCAAAGTTCATCTAGGTAACGTAAGATATGCT 5.97

# input Name the recorded PBM binding z-score of the sequence listed here: CCTGGGAGGACAGAAGGTCAGAGCTGTCCGCTTT
# output 1.86

# input // fetch PBM binding z-score given entry TCTTGTGGATCAAAGGTTAAGAAAGCCGAAGCCT
# output 1.88

# input Specify measured PBM binding z-score for CCATACGGGTCACGAGGTTATAGCACGACGAGCG .
# output 4.32

# input Give the measured PBM binding z-score for CAAACTAGGTCAAGAGGGCAAAGTCCGCTTCCCG
# output 4

# input Quick one: give measured PBM binding z-score for ATATGCAGGTTAAGGGTCATTCAGGTTGGTTCGC
# output 4.8

# input For the sequence TCATATAGGTAAAAGGTGACAGTCGGTGTGGTAA , give its measured PBM binding z-score value.
# output 1.46

# input Output PBM binding z-score of CCGACAGGGGCAAAGGTTACCATACTCAGTACGA
# output 2.32

---

Readings of PBM binding z-score for the listed sequences
Test system: VDR homodimer (NR concentration 270 nM)
Test: PBM binding z-score (relative to random genomic background probes); higher = stronger binding; sequences stand for … in GC…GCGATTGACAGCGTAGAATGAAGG
I only need the number, thanks.

Worked examples, 2 sequences total:
CGTCCATGGTCAAGGTCAGTGAAAGAGACTCGAA 1.02
AGAATGAGGTTCCCAAAGATCAGGGAAACGCTTG -0.39

# input Indicate the recorded PBM binding z-score value for this sequence: CCTGCTAGGTCATGGTCCGCTAATCTACAGTATG
# output 0.414

---

Tested on: PPARg:RXRa (NR concentration 180 nM, RXRa partner concentration 90 nM)
Assay: PBM binding z-score (relative to random genomic background probes); higher = stronger binding; sequences stand for … in GC…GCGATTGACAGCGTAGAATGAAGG
measuredEndpoint: PBM binding z-score
Lab note: record just the number, no unit beside it.

GCTTGTAGATAAAGGTTAAGAAAGACTAAGCTAA 1.41
GCTAGCTGGCCATTTGGGTCACTCAATGACGGGC 0.205
CCGACTGGGGCCAGGTTACCATAACGCACAGCCA 0.629
AGTCAAAGTTCATCTAGTTAACGTAAGATATGCT 6.49
CCTTACGTGTCACGAGGTTATAGCACGACGAGCG 2.05

With those in mind, consider the next sequence.
# input // fetch PBM binding z-score given entry CGTCCAAGGTCAAAGGTTAGTGAAGAGATGACGG
# output 8.94

---

System: PPARg:RXRa 30nM:10nM, anti-RXR (NR concentration 30 nM, RXRa partner concentration 10 nM)
Assay: PBM binding z-score (relative to random genomic background probes); higher = stronger binding; sequences stand for … in GC…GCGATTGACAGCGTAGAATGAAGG
Give Satisfied when the value for PBM binding z-score is at least 0.3. Give Not satisfied when it is less.

Illustrative cases are given below, each with its answer.
CCTAGCAGGCCAGGGTCACTCCAGCATTTCGCTT Not satisfied
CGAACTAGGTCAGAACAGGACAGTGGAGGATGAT Satisfied
CCGACTGGGGAAAAGGTTACCATACTCAGTACGA Satisfied
GCATATAGGTAATACAAGGTGAAATTCCGATTGT Satisfied
TAGCCTAGGTAATTCAGGGGCCAGTATAGAAAGC Not satisfied

Could you now consider this next sequence?
# input Could you tell me if the measured PBM binding z-score of CGTCAAAGTTCAACAAAGGTAACGTAAAGCACGC reaches 0.3 or more?
# output Satisfied

---

Test system: PPARg:RXRa DBDmut IVT, anti-RXR (DBD mutation: RXRa K156A/R161A, NR concentration 270 nM, RXRa partner concentration 90 nM)
Assay: PBM binding z-score (relative to random genomic background probes); higher = stronger binding; sequences stand for … in GC…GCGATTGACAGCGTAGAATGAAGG
Measured PBM binding z-score by item
Field format: numeric only.

Check out these entries, answers already filled in.
CATACAGGGTCAGTTAGGCCAGAGTAGGGACGGC 0.861
TCTTGTTGATCAGCAGGTTAAGAAAGCTGGCCAA 1.56
GCGTACGGGTCAAAGGTTATAGCATGAATAGAAT 2.3

# input Please report the measured PBM binding z-score for AGTCAAACTTCATCTAGGTAACGTAAGATATGCT
# output 0.952

# input Give recorded PBM binding z-score. CGCCAAAGTTCAAGGTAACGTAACAGAAAGCAGC
# output 0.89

# input Check the records and state PBM binding z-score for CTAGACAGGTGAGAAGGTAACTCAGCCTCGATTA
# output 0.878

# input Could you please provide reported PBM binding z-score for TGTCAAAGTTCAAAGGTATCGTAAGTATCCACAC ? Thanks!
# output -0.2

# input Specify measured PBM binding z-score for CCGAGTTGGTCAGGAGGTCACACACCGGATATGA .
# output 0.95

# input Supply recorded PBM binding z-score for CCTACCGGGCCAAGGTCATTGATCAGTCAAAGCA here.
# output 0.244

# input Write down PBM binding z-score measured for item TCTTGTAGTTCAACAGGAGGTTAAGAAAGATCGA
# output 1.24

# input Give the value of PBM binding z-score reported for the following: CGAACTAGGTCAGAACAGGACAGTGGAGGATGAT
# output 7.32

# input Output PBM binding z-score of GCATATAGGTAATACTAGGTGAAAGTCCGATTGT
# output 4.82

# input Indicate its recorded PBM binding z-score; the sequence in question is TTACCAAGGTGAGAGGTCGTTGATGCACGCCTTG
# output 1.49
